Parameter GI50, tested on OVCAR-4, listed per item.
A number alone suffices; assume µM.

Fill blank: measured GI50 of the molecule CC(C)(C)OC(=O)Nc1ccc(O)c(C(=O)NCCOC(=O)NCCNC(=O)c2cc(OCc3ccccc3)ccc2OCc2ccccc2)c1 is ____. 29.1

// same read-out, input: COc1cc(CNCC2CCN(C(=O)OC(C)(C)C)CC2)cc(CN2CCN(c3ccccn3)CC2)c1O 47.8

// same read-out, input: CCOC(=O)c1ccc(CNCc2cc(CN3CCN(c4ccccn4)CC3)c(O)c(OC)c2)cc1 [Compound Q012135T] 18.6

// same read-out, input: CCOC(=O)[C@H](Cc1ccccc1)NCc1cc(CN2CCN(c3ccccn3)CC2)c(O)c(OC)c1 [Compound Q012147T] 70.2

// same read-out, input: COc1cc(CNc2ccc(C(=O)OC(C)(C)C)cc2)cc(CN2CCN(c3ccccn3)CC2)c1O [Compound Q012145T] 46.9

----------
Parameter GI50, tested on RXF 393, listed per item.
A number alone suffices; assume µM.

Report GI50 for CCOC(=O)c1ccc(CNCc2cc(CN3CCN(c4ccccn4)CC3)c(O)c(OC)c2)cc1 [Compound Q012135T] tested on RXF 393. 18.8

// same read-out, input: COc1cc(CNCC2CCN(C(=O)OC(C)(C)C)CC2)cc(CN2CCN(c3ccccn3)CC2)c1O 13.6

// same read-out, input: COc1cc(CNc2ccc(C(=O)OC(C)(C)C)cc2)cc(CN2CCN(c3ccccn3)CC2)c1O [Compound Q012145T] 80.3

// same read-out, input: CCOC(=O)[C@H](Cc1ccccc1)NCc1cc(CN2CCN(c3ccccn3)CC2)c(O)c(OC)c1 [Compound Q012147T] 76.5

----------
Test system: OVCAR-3
result-type: GI50 (µM)
A number alone suffices; assume µM.

Fill blank: measured GI50 of the compound CCOC(=O)[C@H](Cc1ccccc1)NCc1cc(CN2CCN(c3ccccn3)CC2)c(O)c(OC)c1 [Compound Q012147T] is ____. 86.2

// same read-out, input: COc1cc(CNCC2CCN(C(=O)OC(C)(C)C)CC2)cc(CN2CCN(c3ccccn3)CC2)c1O [Compound Q012132] 33.1

// same read-out, input: CCOC(=O)c1ccc(CNCc2cc(CN3CCN(c4ccccn4)CC3)c(O)c(OC)c2)cc1 [Compound Q012135T] 14.1

// same read-out, input: COc1cc(CNc2ccc(C(=O)OC(C)(C)C)cc2)cc(CN2CCN(c3ccccn3)CC2)c1O [Compound Q012145T] 37.5

----------
Parameter GI50, tested on SK-OV-3, listed per item.

Fill blank: measured GI50 of the compound CCOC(=O)[C@H](Cc1ccccc1)NCc1cc(CN2CCN(c3ccccn3)CC2)c(O)c(OC)c1 [Compound Q012147T] is ____. > 100 µM

// same read-out, input: COc1cc(CNc2ccc(C(=O)OC(C)(C)C)cc2)cc(CN2CCN(c3ccccn3)CC2)c1O [Compound Q012145T] > 100 µM

// same read-out, input: CC(C)(C)OC(=O)Nc1ccc(O)c(C(=O)NCCOC(=O)NCCNC(=O)c2cc(OCc3ccccc3)ccc2OCc2ccccc2)c1 > 100 µM

----------
Tested on: SK-MEL-28
Kindly supply the reported GI50 values for the records listed here.

Fill blank: measured GI50 of the compound CC(C)(C)OC(=O)Nc1ccc(O)c(C(=O)NCCOC(=O)NCCNC(=O)c2cc(OCc3ccccc3)ccc2OCc2ccccc2)c1 is ____. > 100 µM

// same read-out, input: COc1cc(CNc2ccc(C(=O)OC(C)(C)C)cc2)cc(CN2CCN(c3ccccn3)CC2)c1O [Compound Q012145T] > 100 µM

// same read-out, input: CCOC(=O)[C@H](Cc1ccccc1)NCc1cc(CN2CCN(c3ccccn3)CC2)c(O)c(OC)c1 [Compound Q012147T] > 100 µM

----------
system-tested: wildtype human PAI-1 (Homo sapiens)
Construct: purchased Molecular Innovations Lot# HWT-804
Sequence (P05121 24-402): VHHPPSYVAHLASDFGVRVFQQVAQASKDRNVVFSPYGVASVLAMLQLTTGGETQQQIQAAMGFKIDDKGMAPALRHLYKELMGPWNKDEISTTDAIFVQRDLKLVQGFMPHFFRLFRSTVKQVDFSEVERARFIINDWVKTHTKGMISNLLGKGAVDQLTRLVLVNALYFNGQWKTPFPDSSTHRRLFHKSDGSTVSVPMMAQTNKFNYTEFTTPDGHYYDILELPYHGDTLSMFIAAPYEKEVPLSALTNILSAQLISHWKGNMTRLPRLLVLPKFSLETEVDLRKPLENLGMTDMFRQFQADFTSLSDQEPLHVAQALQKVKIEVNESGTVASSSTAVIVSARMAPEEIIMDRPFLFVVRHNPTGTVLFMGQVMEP
method: PAI-1/uPA assay (residual uPA activity, fluorescent substrate SpectroFluor)
Assay type: biochemical
study-conditions: at the concentration given; percent of activity of untreated PAI-1
Kindly supply the reported Percent PAI-1 inhibition values for the records listed here.
Write no unit; give the number alone.

Fill blank: measured Percent PAI-1 inhibition of the compound Cc1cc(=O)oc2cc(OCC(=O)N[C@@H](Cc3csc4ccccc34)C(=O)O)ccc12 [Compound Q012055A] is ____. 41

// same read-out, input: CC(C)(C)OC(=O)Nc1ccc(O)c(C(=O)NCCO)c1 [Compound Q012021B] 25

// same read-out, input: CCOC(=O)[C@H](Cc1csc2ccccc12)NC(=O)COc1ccc2c(C)cc(=O)oc2c1 [Compound Q012055] 51

// same read-out, input: Cl.O=C(N[C@@H](Cc1csc2ccccc12)C(=O)O)c1cncc(Br)c1 [Compound Q011265] 20

// same read-out, input: CCOC(=O)[C@H](Cc1csc2ccccc12)NC(=O)[C@@H]1CCCN(C(=O)OC(C)(C)C)C1 [Compound Q012126] 19

// same read-out, input: COc1cc(/C=C/C(=O)CC(=O)/C=C/c2ccc(O)c(OC)c2)ccc1O [Curcumin, curcumin, reference compound] 22

// same read-out, input: CCOC(=O)c1ccc(CNCc2cc(CN3CCN(c4ccccn4)CC3)c(O)c(OC)c2)cc1 [Compound Q012135T] 8

// same read-out, input: CN1C(=N)N/C(=C\c2csc3ccccc23)C1=O [Compound Q012038] 35

// same read-out, input: COc1cc(CNCCCn2ccnc2)cc(CN2CCN(c3ncccn3)CC2)c1O [Compound Q012110] 57

Reference source: patent US20080280920A1
